The measured values listed here are drawn from ChEMBL document CHEMBL4002549.

- EXPERIMENT_SUMMARY: AUC (0 to infinity) in Sprague-Dawley rat at 25 mg/kg, po
- Format: ADME, organism-based
- Set-up: dose 25 mg/kg, route oral, time infinity
- STATED_CONDITIONS: in vivo
MEASUREMENT_KIND: AUC(0-inf) (µM·h)
The reply should be a number in µM·h, with the unit left off.

Exercise: Dear colleague, I am looking for the recorded AUC(0-inf) of the following compound: `CCCC[C@@H]1[C@H]2CCCN3CCC[C@@H](CN1S(=O)(=O)c1ccccc1C#N)[C@@H]23`
Solution: 31.8

* * *

- EXPERIMENT_SUMMARY: Selectivity index, ratio of TC50 for African green monkey Vero cells to IC50 for Coxsackievirus B3 Nancy infected in African green monkey Vero cells
- Type: toxicity
- STATED_CONDITIONS: read-out: Selectivity Index
MEASUREMENT_KIND: selectivity ratio
Provide a numeric answer; units are not to be included.

Please review the entries below; each comes with its answer.
# COMPOUND_STRING, ASSAY_VALUE
measured = [
    ("CCCC[C@@H]1[C@H]2CCCN3CCC[C@@H](CN1S(=O)(=O)c1ccccc1C#N)[C@@H]23", 111),
    ("CCCC[C@@H]1[C@H]2CCCN3CCC[C@@H](CN1S(=O)(=O)c1cccc(C#N)c1)[C@@H]23", 84.3),
]

Kindly consider the entry below.
Exercise: What does the record list as selectivity ratio for `O=S(=O)(c1ccccc1C(F)(F)F)N1C[C@@H]2CCCN3CCC[C@@H]([C@H]23)[C@H]1CCCCF` ?
Solution: 13.6

* * *

Catalogue of selectivity ratio readings, one per entry.
- EXPERIMENT_SUMMARY: Selectivity index, ratio of TC50 for African green monkey Vero cells to IC50 for Coxsackievirus B3 Nancy infected in African green monkey Vero cells
- Format: toxicity
- STATED_CONDITIONS: read-out: Selectivity Index
Form rule: numeric answer, no unit written next to it.

Here is how some compounds turned out for selectivity ratio.
# COMPOUND_STRING, selectivity ratio
records = [
    ("CCCC[C@@H]1[C@H]2CCCN3CCC[C@@H](CN1S(=O)(=O)c1cccc(C(=O)OC)c1)[C@@H]23", 50.9),
    ("N#Cc1ccccc1S(=O)(=O)N1C[C@@H]2CCCN3CCC[C@@H]([C@H]23)[C@H]1CCCCF", 13),
    ("O=S(=O)(c1ccc(C(F)(F)F)cc1)N1C[C@@H]2CCCN3CCC[C@@H]([C@H]23)[C@H]1CCCCF", 121),
    ("CCCC[C@@H]1[C@H]2CCCN3CCC[C@@H](CN1S(=O)(=O)c1ccc(C(=O)OC)cc1)[C@@H]23", 25.1),
    ("N#Cc1cccc(S(=O)(=O)N2C[C@@H]3CCCN4CCC[C@@H]([C@H]34)[C@H]2CCCCF)c1", 61.4),
]

Exercise: Could you share which selectivity ratio value was measured for `CCCC[C@@H]1[C@H]2CCCN3CCC[C@@H](CN1S(=O)(=O)c1ccc(NC(C)=O)cc1)[C@@H]23` ?
Solution: 38.9

Exercise: Okay, and `O=S(=O)(c1cccc(C(F)(F)F)c1)N1C[C@@H]2CCCN3CCC[C@@H]([C@H]23)[C@H]1CCCCF` ?
Solution: 122

Exercise: Thanks! And `CCCC[C@@H]1[C@H]2CCCN3CCC[C@@H](CN1S(=O)(=O)c1ccccc1C(=O)OC)[C@@H]23` ?
Solution: 44.1

Exercise: Cool, now `N#Cc1cccc(S(=O)(=O)N2C[C@@H]3CCCN4CCC[C@@H]([C@H]34)[C@H]2CCCCCl)c1`
Solution: 24.3

Exercise: For `N#Cc1ccc(S(=O)(=O)N2C[C@@H]3CCCN4CCC[C@@H]([C@H]34)[C@H]2CCCCF)cc1` then?
Solution: 36.7

Exercise: Same again, this time with `N#Cc1cccc(S(=O)(=O)N2C[C@@H]3CCCN4CCC[C@@H]([C@H]34)[C@H]2CCCl)c1`
Solution: 97

* * *

# selectivity ratio listing for each entry below
- EXPERIMENT_SUMMARY: Selectivity index, ratio of TC50 for African green monkey Vero cells to IC50 for Coxsackievirus B3 Nancy infected in African green monkey Vero cells
- Assay type: toxicity
- STATED_CONDITIONS: read-out: Selectivity Index

Some molecules with recorded selectivity ratio:
# COMPOUND_STRING, selectivity ratio
measured = [
    ("NC(=O)c1ncn([C@@H]2O[C@H](CO)[C@@H](O)[C@H]2O)n1", "11.8 to 16.8"),
    ("NC(=O)c1ccc(S(=O)(=O)N2C[C@@H]3CCCN4CCC[C@@H]([C@H]34)[C@H]2CCO)cc1", "> 30.7"),
    ("NC(=O)c1cccc(S(=O)(=O)N2C[C@@H]3CCCN4CCC[C@@H]([C@H]34)[C@H]2CCO)c1", "> 53.1"),
]

Now for a further molecule.
Exercise: Can you share its selectivity ratio? I mean this molecule: `O=S(=O)(c1ccccc1/C=N/O)N1C[C@@H]2CCCN3CCC[C@@H]([C@H]23)[C@H]1CCO`
Solution: > 565
